Data provenance: ChEMBL document CHEMBL1926550

Tested on: Enterococcus faecium
Assay: Antibacterial activity against Enterococcus faecium 09-1 after 18 hrs by two fold serial dilution method
Format: functional
Details: 09-1, 18 h
reported_endpoint: MIC (µg/mL)
The response must be a number in µg/mL with no trailing unit.

# count of solved cases: 5
>  <molecule>
NCC1CN(c2nc3c(cc2F)c(=O)c(C(=O)O)cn3-c2ccc(F)cc2F)C/C1=N\OC(F)F (racemic)

>  <reported_endpoint>
MIC

>  <quantity_unit>
µg/mL

>  <readout_value>
32

$$$$
>  <molecule>
COc1c(N2C[C@@H]3CCCN[C@@H]3C2)c(F)cc2c(=O)c(C(=O)O)cn(C3CC3)c12 [MOXIFLOXACIN]

>  <reported_endpoint>
MIC

>  <quantity_unit>
µg/mL

>  <readout_value>
16

$$$$
>  <molecule>
CC1(CN)CN(c2nc3c(cc2F)c(=O)c(C(=O)O)cn3C2CC2)C/C1=N\OCF (racemic)

>  <reported_endpoint>
MIC

>  <quantity_unit>
µg/mL

>  <readout_value>
16

$$$$
>  <molecule>
NCC1CN(c2nc3c(cc2F)c(=O)c(C(=O)O)cn3C2CC2)C/C1=N\OCF (racemic)

>  <reported_endpoint>
MIC

>  <quantity_unit>
µg/mL

>  <readout_value>
32

$$$$
>  <molecule>
CO/N=C1\CN(c2nc3c(cc2F)c(=O)c(C(=O)O)cn3C2CC2)CC1CN (stereo not given) [GEMIFLOXACIN]

>  <reported_endpoint>
MIC

>  <quantity_unit>
µg/mL

>  <readout_value>
16

$$$$

Inquiry: What value of MIC has been reported for the following molecule? CC1(CN)CN(c2ccc3c(=O)c(C(=O)O)cn(C4CC4)c3n2)C/C1=N\OCF (racemic)
Reply text: 32

Inquiry: What value of MIC has been reported for the following molecule? NCC1CN(c2nc3c(cc2F)c(=O)c(C(=O)O)cn3-c2ccc(F)cc2F)C/C1=N\OCF (racemic)
Reply text: 64

Inquiry: What value of MIC has been reported for the following molecule? NCC1CN(c2ccc3c(=O)c(C(=O)O)cn(C4CC4)c3n2)C/C1=N\OCF (racemic)
Reply text: 64

Inquiry: What value of MIC has been reported for the following molecule? NCC1CN(c2nc3c(cc2F)c(=O)c(C(=O)O)cn3C2CC2)C/C1=N\OC(F)F (racemic)
Reply text: 32

----------
Tested on: Staphylococcus aureus
Experiment: Antibacterial activity against methicillin-resistant Staphylococcus aureus 10-1 after 18 hrs by two fold serial dilution method
Type: functional
Conditions: 10-1, 18 h
reported_endpoint: MIC (µg/mL)
The response must be a number in µg/mL with no trailing unit.

# count of solved cases: 2
>  <molecule>
CC1(CN)CN(c2ccc3c(=O)c(C(=O)O)cn(C4CC4)c3n2)C/C1=N\OCF (racemic)

>  <measured_target>
Staphylococcus aureus

>  <reported_endpoint>
MIC

>  <readout_value>
128

$$$$
>  <molecule>
COc1c(N2C[C@@H]3CCCN[C@@H]3C2)c(F)cc2c(=O)c(C(=O)O)cn(C3CC3)c12 [MOXIFLOXACIN]

>  <measured_target>
Staphylococcus aureus

>  <reported_endpoint>
MIC

>  <readout_value>
8

$$$$

Please turn your attention to the following entry.
Inquiry: What value of MIC has been reported for the following molecule? CC1(CN)CN(c2nc3c(cc2F)c(=O)c(C(=O)O)cn3C2CC2)C/C1=N\OCF (racemic)
Reply text: 4

----------
Listed here are compounds together with their documented MIC.
System: Staphylococcus aureus
Assay: Antibacterial activity against methicillin-resistant Staphylococcus aureus 10-1 after 18 hrs by two fold serial dilution method
Assay type: functional
Settings: 10-1, 18 h
The response must be a number in µg/mL with no trailing unit.

# count of solved cases: 4
>  <compound>
NCC1CN(c2nc3c(cc2F)c(=O)c(C(=O)O)cn3-c2ccc(F)cc2F)C/C1=N\OC(F)F (racemic)

>  <reported_endpoint>
MIC

>  <readout_value>
16

$$$$
>  <compound>
NCC1CN(c2nc3c(cc2F)c(=O)c(C(=O)O)cn3C2CC2)C/C1=N\OC(F)F (racemic)

>  <reported_endpoint>
MIC

>  <readout_value>
16

$$$$
>  <compound>
NCC1CN(c2nc3c(cc2F)c(=O)c(C(=O)O)cn3C2CC2)C/C1=N\OCF (racemic)

>  <reported_endpoint>
MIC

>  <readout_value>
32

$$$$
>  <compound>
CO/N=C1\CN(c2nc3c(cc2F)c(=O)c(C(=O)O)cn3C2CC2)CC1CN (stereo unspecified) [GEMIFLOXACIN]

>  <reported_endpoint>
MIC

>  <readout_value>
16

$$$$

Please turn your attention to the following entry.
Inquiry: MIC of NCC1CN(c2nc3c(cc2F)c(=O)c(C(=O)O)cn3-c2ccc(F)cc2F)C/C1=N\OCF (racemic) on Staphylococcus aureus?
Reply text: 64

----------
Test system: Staphylococcus aureus
Assay: Antibacterial activity against methicillin-sensitive Staphylococcus aureus 10-3 after 18 hrs by two fold serial dilution method
Format: functional
Details: 10-3, 18 h
reported_endpoint: MIC (µg/mL)
The response must be a number in µg/mL with no trailing unit.

>  <compound>
CO/N=C1\CN(c2nc3c(cc2F)c(=O)c(C(=O)O)cn3C2CC2)CC1CN (stereo not given)

>  <measured_target>
Staphylococcus aureus

>  <readout_value>
0.06

$$$$

Inquiry: What value of MIC has been reported for the following compound? NCC1CN(c2nc3c(cc2F)c(=O)c(C(=O)O)cn3-c2ccc(F)cc2F)C/C1=N\OCF (racemic)
Reply text: 0.125

Inquiry: What value of MIC has been reported for the following compound? O=C(O)c1cn(C2CC2)c2cc(N3CCNCC3)c(F)cc2c1=O
Reply text: 0.06

Inquiry: What value of MIC has been reported for the following compound? NCC1CN(c2ccc3c(=O)c(C(=O)O)cn(C4CC4)c3n2)C/C1=N\OCF (racemic)
Reply text: 0.25

Inquiry: What value of MIC has been reported for the following compound? CC1(CN)CN(c2ccc3c(=O)c(C(=O)O)cn(C4CC4)c3n2)C/C1=N\OCF (racemic)
Reply text: 0.015

Inquiry: What value of MIC has been reported for the following compound? NCC1CN(c2nc3c(cc2F)c(=O)c(C(=O)O)cn3C2CC2)C/C1=N\OC(F)F (racemic)
Reply text: 0.06

----------
Test system: Enterococcus faecium
Assay: Antibacterial activity against Enterococcus faecium 09-6 after 18 hrs by two fold serial dilution method
Format: functional
Details: 09-6, 18 h
Listed here are compounds together with their documented MIC.
The response must be a number in µg/mL with no trailing unit.

>  <compound>
NCC1CN(c2nc3c(cc2F)c(=O)c(C(=O)O)cn3-c2ccc(F)cc2F)C/C1=N\OCF (racemic)

>  <measured_target>
Enterococcus faecium

>  <quantity_unit>
µg/mL

>  <MIC>
0.5

$$$$

Inquiry: MIC of CC1(CN)CN(c2ccc3c(=O)c(C(=O)O)cn(C4CC4)c3n2)C/C1=N\OCF (racemic) on Enterococcus faecium?
Reply text: 0.5

Inquiry: MIC of CC1(CN)CN(c2nc3c(cc2F)c(=O)c(C(=O)O)cn3C2CC2)C/C1=N\OCF (racemic) on Enterococcus faecium?
Reply text: 0.06

Inquiry: MIC of CO/N=C1\CN(c2nc3c(cc2F)c(=O)c(C(=O)O)cn3C2CC2)CC1CN (stereo not given) [GEMIFLOXACIN] on Enterococcus faecium?
Reply text: 0.03

Inquiry: MIC of COc1c(N2C[C@@H]3CCCN[C@@H]3C2)c(F)cc2c(=O)c(C(=O)O)cn(C3CC3)c12 [MOXIFLOXACIN] on Enterococcus faecium?
Reply text: 0.125

Inquiry: MIC of NCC1CN(c2nc3c(cc2F)c(=O)c(C(=O)O)cn3C2CC2)C/C1=N\OCF (racemic) on Enterococcus faecium?
Reply text: 0.03

Inquiry: MIC of NCC1CN(c2nc3c(cc2F)c(=O)c(C(=O)O)cn3C2CC2)C/C1=N\OC(F)F (racemic) on Enterococcus faecium?
Reply text: 0.06

Inquiry: MIC of NCC1CN(c2ccc3c(=O)c(C(=O)O)cn(C4CC4)c3n2)C/C1=N\OCF (racemic) on Enterococcus faecium?
Reply text: 1

Inquiry: MIC of NCC1CN(c2nc3c(cc2F)c(=O)c(C(=O)O)cn3-c2ccc(F)cc2F)C/C1=N\OC(F)F (racemic) on Enterococcus faecium?
Reply text: 0.125

Inquiry: MIC of O=C(O)c1cn(C2CC2)c2cc(N3CCNCC3)c(F)cc2c1=O [CIPROFLOXACIN] on Enterococcus faecium?
Reply text: 0.5

----------
System: Escherichia coli
Assay: Antibacterial activity against Escherichia coli 09-3 after 18 hrs by two fold serial dilution method
Format: functional
Conditions: 09-3, 18 h
Listed here are compounds together with their documented MIC.
The response must be a number in µg/mL with no trailing unit.

# count of solved cases: 4
>  <compound>
NCC1CN(c2nc3c(cc2F)c(=O)c(C(=O)O)cn3C2CC2)C/C1=N\OC(F)F (racemic)

>  <measured_target>
Escherichia coli

>  <quantity_unit>
µg/mL

>  <MIC>
16

$$$$
>  <compound>
CC1(CN)CN(c2nc3c(cc2F)c(=O)c(C(=O)O)cn3C2CC2)C/C1=N\OCF (racemic)

>  <measured_target>
Escherichia coli

>  <quantity_unit>
µg/mL

>  <MIC>
32

$$$$
>  <compound>
O=C(O)c1cn(C2CC2)c2cc(N3CCNCC3)c(F)cc2c1=O

>  <measured_target>
Escherichia coli

>  <quantity_unit>
µg/mL

>  <MIC>
64

$$$$
>  <compound>
CO/N=C1\CN(c2nc3c(cc2F)c(=O)c(C(=O)O)cn3C2CC2)CC1CN (centres undefined)

>  <measured_target>
Escherichia coli

>  <quantity_unit>
µg/mL

>  <MIC>
16

$$$$

Inquiry: What value of MIC has been reported for the following compound? NCC1CN(c2nc3c(cc2F)c(=O)c(C(=O)O)cn3-c2ccc(F)cc2F)C/C1=N\OC(F)F (racemic)
Reply text: 64

Inquiry: What value of MIC has been reported for the following compound? NCC1CN(c2nc3c(cc2F)c(=O)c(C(=O)O)cn3C2CC2)C/C1=N\OCF (racemic)
Reply text: 32
